Exercise: state measured log10 of cAMP EC50, hGIPr (C3) line for each of the binders provided.
Biological target: T1, human GIP receptor (human) (UniProt P48546)
T1 sequence (looked up): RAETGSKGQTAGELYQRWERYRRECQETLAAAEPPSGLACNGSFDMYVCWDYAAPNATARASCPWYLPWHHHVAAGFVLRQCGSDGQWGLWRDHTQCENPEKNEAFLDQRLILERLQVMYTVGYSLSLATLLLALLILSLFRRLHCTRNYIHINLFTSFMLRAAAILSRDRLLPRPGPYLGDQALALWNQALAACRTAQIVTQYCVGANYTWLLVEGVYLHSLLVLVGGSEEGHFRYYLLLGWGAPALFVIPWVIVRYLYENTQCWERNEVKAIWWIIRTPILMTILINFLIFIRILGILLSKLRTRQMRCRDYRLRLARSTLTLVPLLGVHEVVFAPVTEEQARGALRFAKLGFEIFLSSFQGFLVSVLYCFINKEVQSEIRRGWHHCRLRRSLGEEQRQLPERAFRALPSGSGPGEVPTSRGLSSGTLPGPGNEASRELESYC
Assay: cell-based or functional assay
// units: nM (pre-log); metric: cAMP EC50, hGIPr (C3) line; scale: log10

Prompt line: Entry under review: IP346 (Fc fusion) YSEGTFTSDYSKLLERQAIDEFIAFLLKGGGGGGGSGGGGSGGGGSGGGGSGGGGSGGGGSA . Reported log10 of cAMP EC50, hGIPr (C3) line?
Response line: -0.80

Prompt line: Entry under review: IP018 (Fc fusion) YSEGTFISDYSIAMDKIHQQDFVNWLLAQKAAAGGSGSTASSGSGSATGGGGAATHTCPPCPAPEF . Reported log10 of cAMP EC50, hGIPr (C3) line?
Response line: -0.10

Prompt line: Entry under review: IP422 (Fc fusion) YSEGTHTSDLRILLERQAIDEFIAFLLKGGGSGGGGSGGGGSGGGGSGGGGSGGGGSGGGGSGGGGSACPPC . Reported log10 of cAMP EC50, hGIPr (C3) line?
Response line: 0.26

Prompt line: Entry under review: IP412 (Fc fusion) YSEGTFTSDYSKLLEEEANRLFIEWLLAGGGGGGSGGGGSGGGGSGGGGSATHTCPPC . Reported log10 of cAMP EC50, hGIPr (C3) line?
Response line: 0.11

Prompt line: Entry under review: IP367 (Fc fusion) YSEGTFTSDYRILKERQAIDEFIAWLLKGGAAAGGSGSTASSGSGSATGGGGAATHTCPPC . Reported log10 of cAMP EC50, hGIPr (C3) line?
Response line: 1.11
